Biological target: T1, recombinant human GM-CSF (Peprotech) (human, UniProt P04141 18-144)
T1 construct: Commercial recombinant protein; also called granulocyte-macrophage colony stimulating factor
T1 sequence (P04141 18-144 limits assumed): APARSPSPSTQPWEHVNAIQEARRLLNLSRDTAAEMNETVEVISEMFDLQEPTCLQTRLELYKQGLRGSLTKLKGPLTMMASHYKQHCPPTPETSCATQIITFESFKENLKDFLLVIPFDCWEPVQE
Test: BIAcore, recombinant human GM-CSF amine-coupled to a CM5 chip, antibody at 1 ug/ml injected for 3 min
Description: The binding affinity of the humanized antibodies was determined by BIACore analysis. Recombinant GM-CSF (Peprotech) at 100 μg/ml was prepared in sodium acetate, pH5, and immobilised to a CM5 sensor chip by amine coupling. Approximately 1200RU bound to the chip. The first experiment was to determine the binding activity of 15 humanized antibodies. […]
measurement kind: binding result

hGM4/15 (antibody, V domains shown, Heavy h4/50 with human gamma 1 constant (hG1), light h4c with human kappa constant (hKa); also called h4K21-15) VH: EVQLVESGGGLVKSGGSLTLSCAASGFAFSAYDMSWIRQAPGKGLEWVSYISSGGSSFYYPDTVKGRFTISRDNAKNSLYLQMNSLKDEDTAVYYCARHLGFDYWGQGTLVTVSS VL: DVVMTQSPLSLPVTPGEPASISCRSSQSLVNSNGNTYLHWYLQKPGQSPQLLIYKVSNRFSGVPDRFSGSGSGTDFTLKISRVEAEDVGVYYCSQSTHVPPTFGGGTKVEIK    binds
hGM4/12 (antibody, V domains shown, Heavy h4/20 with human gamma 1 constant (hG1), light h4c with human kappa constant (hKa); also called h4K21-12) VH: EVQLVESGGGLVQPGGSLRLSCAASGFAFSAYDMSWVRQAPGKGLEWVSYISSGGSSFYYPDTVKGRFTISRDNAKNSLYLQMNSLRAEDTAVYYCARHLGFDYWGQGTLVTVSS VL: DVVMTQSPLSLPVTPGEPASISCRSSQSLVNSNGNTYLHWYLQKPGQSPQLLIYKVSNRFSGVPDRFSGSGSGTDFTLKISRVEAEDVGVYYCSQSTHVPPTFGGGTKVEIK    binds
hGM4/13 (antibody, V domains shown, Heavy h4/30 with human gamma 1 constant (hG1), light h4c with human kappa constant (hKa); also called h4K21-13) VH: EVQLVESGGGLVQPGGSLRLSCSASGFAFSAYDMSWVRQAPGKGLEWVAYISSGGSSFYYPDTVKGRFTISRDNAKNSLFLQMSSLRAEDTAVYYCARHLGFDYWGQGTTVTVSS VL: DVVMTQSPLSLPVTPGEPASISCRSSQSLVNSNGNTYLHWYLQKPGQSPQLLIYKVSNRFSGVPDRFSGSGSGTDFTLKISRVEAEDVGVYYCSQSTHVPPTFGGGTKVEIK    binds
